Where do these numbers come from? They come from patent US20090069328A1.

Molecular target: human FSH receptor (Homo sapiens, UniProt P23945)
Construct: expressed in transfected cells; host or cells: CHO cells (hFSHR clone 16)
Sequence (P23945 18-695): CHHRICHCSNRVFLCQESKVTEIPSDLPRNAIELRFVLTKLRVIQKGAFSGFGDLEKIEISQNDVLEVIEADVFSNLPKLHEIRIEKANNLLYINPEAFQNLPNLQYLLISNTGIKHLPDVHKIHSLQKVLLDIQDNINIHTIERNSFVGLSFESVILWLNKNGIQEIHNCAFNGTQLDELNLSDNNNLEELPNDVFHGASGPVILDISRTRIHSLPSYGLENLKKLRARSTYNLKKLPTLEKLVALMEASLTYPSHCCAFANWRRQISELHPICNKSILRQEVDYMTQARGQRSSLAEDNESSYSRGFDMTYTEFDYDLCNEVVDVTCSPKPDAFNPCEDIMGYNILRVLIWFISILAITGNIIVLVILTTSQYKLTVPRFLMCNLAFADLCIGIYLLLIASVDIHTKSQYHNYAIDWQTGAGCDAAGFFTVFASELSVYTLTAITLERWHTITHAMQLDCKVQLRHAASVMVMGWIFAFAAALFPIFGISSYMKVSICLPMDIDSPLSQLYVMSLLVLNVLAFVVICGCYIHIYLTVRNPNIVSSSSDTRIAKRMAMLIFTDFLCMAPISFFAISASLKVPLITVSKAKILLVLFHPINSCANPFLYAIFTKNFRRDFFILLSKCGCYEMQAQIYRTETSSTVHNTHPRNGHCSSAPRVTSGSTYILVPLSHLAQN
Experiment: HTRF assay for measuring cAMP in cells (FSH antagonism)
Type: cell-based
Settings: hFSHR clone 16 cells (CHO cells stably transfected with the human FSH receptor); in the presence of 1e-9 mol/l hFSH; cAMP readout; read-out: IC50 (FSH antagonistic effect in the HTRF assay)
Reported pIC50 by item:
Give only the number. pIC50 is defined as minus log10 of concentration in molar units.

{"columns": ["Compound", "Tested system", "pIC50"],
 "data": [
  ["COc1ccc(-c2ccc(OC(C)C)c(C(=O)NC(C)(CO)Cc3c[nH]c4ccccc34)c2)cc1OC (racemic)", "human FSH receptor (Homo sapiens, UniProt P23945)", 7.30]
]}

Query: # query: pIC50 of entry CNC(=O)c1cc(F)cc(-c2ccc(OC(C)C)c(C(=O)NC(C)(CO)Cc3c[nH]c4ccccc34)c2)c1 (centres unmarked)
Result: 6.00

Query: Also, COc1ccccc1C#Cc1ccc(OC(C)C)c(C(=O)NC(C)(CO)Cc2c[nH]c3ccccc23)c1 (centres unmarked) please.
Result: 6.70

Query: Also, CC(C)Oc1ccc(C#Cc2ccccc2)cc1C(=O)NC(C)(CO)Cc1c[nH]c2ccccc12 (centres unmarked) please.
Result: 6.00

Query: Also, CNC(=O)c1ccc(-c2ccc(OC(C)C)c(C(=O)NC(C)(CO)Cc3c[nH]c4ccccc34)c2)cc1Cl (centres unmarked) please.
Result: 7.00
